Biological target: T1, human IL-11 (AAH12506.1, Pro22-Leu199) (human, UniProt P20809 22-199)
T1 construct: The range Pro22-Leu199 counts on AAH12506.1; The Octet runs say only 'human IL-11'; also called hIL-11
T1 chain: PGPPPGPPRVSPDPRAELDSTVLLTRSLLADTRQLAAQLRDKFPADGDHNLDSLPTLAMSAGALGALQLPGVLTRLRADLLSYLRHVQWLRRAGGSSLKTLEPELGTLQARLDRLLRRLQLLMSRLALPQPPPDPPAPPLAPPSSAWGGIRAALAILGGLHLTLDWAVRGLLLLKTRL
Assay: BLI (Octet), antibody captured, human IL-11 in solution
For each entry below, report its Kd value.
# number only, unit nM dropped from output

The binder identified as hz18A10-VHm5 + hz18A10-VLm9 (antibody, V domains shown, Constant regions not restated for this antibody) VH: EVQLVQSGAEVKKPGASVKVSCKASGYTFITYNMDWVRQAPGQGLEWMGTIYPGNGDTSYNQKFKGRVTMTRDTSTSTAYMELSSLRSEDTAVYYCARADLHFLDYWGQGTLVTVSS VL: DIQMTQSPSSLSASVGDRVTITCKASQSVYSDVAWYQQKPGKAPKLLIYSASNRYTGVPSRFSGSGSGTDFTFTISSLQPEDIATYYCQHDYSSPYTFGQGTKLEIK registered its Kd at 1.15

Sure, the documented Kd for hz18A10-VH + hz18A10-VLm2 (antibody, V domains shown, Constant regions not restated for this antibody) VH: EVQLVQSGAEVKKPGASVKVSCKASGYTFTTYNMDWVRQAPGQGLEWMGTIYPGNGDTSYNQKFKGRVTMTRDTSTSTVYMELSSLRSEDTAVYYCARGDLYALDYWGQGTLVTVSS VL: DIQMTQSPSSLSASVGDRVTITCKASYSVSNDVAWYQQKPGKAPKLLIYSASNRYTGVPSRFSGSGSGTDFTFTISSLQPEDIATYYCQHDYSSPYTFGQGTKLEIK is 2.3

Please fill in: Kd reported for hz18A10-VHm3 + hz18A10-VLm9 (antibody, V domains shown, Constant regions not restated for this antibody) VH: EVQLVQSGAEVKKPGASVKVSCKASGYTFTTYDMDWVRQAPGQGLEWMGTIYPGNGDTSYNQKFKGRVTMTRDTSTSTVYMELSSLRSEDTAVYYCARGDLYALDYWGQGTLVTVSS VL: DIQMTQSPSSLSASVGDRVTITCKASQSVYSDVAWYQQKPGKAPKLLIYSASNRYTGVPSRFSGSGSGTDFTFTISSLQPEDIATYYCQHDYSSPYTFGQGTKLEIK = 0.0959
